src = the supplement of paper PMC10065799

test system: c-Src; experiment: phosphorylation enrichment, bacterial display (enrichment ratio); higher = better substrate or ligand; peptides without Tyr show the background;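 further: 11-residue human phosphosite peptides and single-mutation variants displayed on the E. coli surface, counted by deep sequencing, each peptide's frequency after selection divided by its frequency in the unselected input library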;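 further: frequency after pTyr selection over input frequency; kinase dosed for 20-30% of maximal phosphorylation in three min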
observed-property: phosphorylation enrichment
Give bare numbers.

// below: answered sequences
record-sequence: FIATQYSLCPR [LBR_Y166_R169C_YF]
phosphorylation enrichment: 0.683
//
record-sequence: RGRSTYFWPRP [GAGE12J_Y9_YF]
phosphorylation enrichment: 0.999
//
record-sequence: MHDKEYFSVHN [MET_Y1234_Y1230H_YF]
phosphorylation enrichment: 0.487
//
record-sequence: EAGKVYLKAPM [CBFB_Y96]
phosphorylation enrichment: 0.434

Go through the items and report each one's phosphorylation enrichment.
1. SVVVPYEPPKV [TP53_Y220_E224K]
2. DPHQQYYIAMD [TBX15_Y159]

Result:
0.465
1.55

Ask: Specify reported phosphorylation enrichment for the sequence shown: IDDNQYAYLKA [HNF4A_Y286_E285Q]
Result: 0.48

###

Please provide measured phosphorylation enrichment for the entries that follow.
tested on: c-Abl (mouse); assay: phosphorylation enrichment, bacterial display (enrichment ratio); higher = better substrate or ligand; peptides without Tyr show the background
Give bare numbers.

record-sequence: RPFFLYVAFHD [SGSH_Y174]
data-value: 1.24
--
record-sequence: DLDTEYGSGYP [RNASEH2A_Y206_D205E]
data-value: 0.727
--
record-sequence: RSRSSYTHGLN [MYCT1_Y116]
data-value: 0.981
--
record-sequence: RLAKTYETTLK [ALB_Y377_E382K]
data-value: 1.65
--
record-sequence: TFMKKYPKVFL [CNBD1_Y70_Q69K]
data-value: 0.548

Go through the items and report each one's phosphorylation enrichment.
1. DLDTEYGSGFP [RNASEH2A_Y206_D205E_YF]
2. RNGDRYFKGIV [DCX_Y64]
3. KVWGIYDCQQP [CYP3A7_Y75]
4. LSFSEYASVQV [SIRPA_Y496_P491L]
5. HAVFVCDICHV [TWNK_Y508_Y508C_YF]

Result:
1.27
0.664
0.998
4.03
0.641

###

biological target: Jak2 (UniProt O60674); assay: phosphorylation enrichment, bacterial display (enrichment ratio); higher = better substrate or ligand; peptides without Tyr show the background
Sequence (O60674 whole entry, looked up): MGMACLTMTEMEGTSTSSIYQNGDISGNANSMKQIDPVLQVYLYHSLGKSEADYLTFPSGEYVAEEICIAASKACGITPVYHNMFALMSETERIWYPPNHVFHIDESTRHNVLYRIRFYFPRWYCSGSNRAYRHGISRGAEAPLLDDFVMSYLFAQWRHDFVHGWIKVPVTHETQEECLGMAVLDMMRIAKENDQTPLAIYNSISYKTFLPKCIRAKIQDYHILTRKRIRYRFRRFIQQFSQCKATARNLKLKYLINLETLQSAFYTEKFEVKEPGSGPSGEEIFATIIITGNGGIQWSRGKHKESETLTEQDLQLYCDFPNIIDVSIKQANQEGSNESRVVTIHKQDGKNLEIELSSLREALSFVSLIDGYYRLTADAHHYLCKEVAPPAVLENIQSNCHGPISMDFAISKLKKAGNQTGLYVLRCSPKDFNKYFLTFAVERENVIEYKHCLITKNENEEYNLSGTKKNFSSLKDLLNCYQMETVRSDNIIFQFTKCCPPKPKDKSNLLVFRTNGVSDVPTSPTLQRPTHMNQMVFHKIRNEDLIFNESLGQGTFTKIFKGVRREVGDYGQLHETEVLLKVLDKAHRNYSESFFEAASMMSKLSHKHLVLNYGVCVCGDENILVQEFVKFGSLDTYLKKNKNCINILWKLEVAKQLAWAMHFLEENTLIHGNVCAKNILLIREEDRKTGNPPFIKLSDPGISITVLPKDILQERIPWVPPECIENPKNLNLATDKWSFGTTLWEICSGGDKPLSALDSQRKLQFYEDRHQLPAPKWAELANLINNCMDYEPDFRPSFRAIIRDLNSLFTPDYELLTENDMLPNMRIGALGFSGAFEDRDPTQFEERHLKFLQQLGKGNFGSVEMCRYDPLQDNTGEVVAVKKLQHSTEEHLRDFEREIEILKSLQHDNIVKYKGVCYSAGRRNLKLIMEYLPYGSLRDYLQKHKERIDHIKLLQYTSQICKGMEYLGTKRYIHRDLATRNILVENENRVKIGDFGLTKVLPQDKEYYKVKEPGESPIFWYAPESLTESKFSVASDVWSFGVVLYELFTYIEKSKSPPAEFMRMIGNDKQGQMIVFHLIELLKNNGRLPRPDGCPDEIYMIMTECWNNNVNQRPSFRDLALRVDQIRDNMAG
Please provide measured phosphorylation enrichment for the entries that follow.
One number for each entry.

// below: answered sequences
record-sequence: FSVDSYDSSVR [KCNQ1_Y461_G460S]
data-value: 0.693
--
record-sequence: RRIHSYRRHLW [VHL_Y112_G114R]
data-value: 0.633
--
record-sequence: VTGWGYRKLRD [F11_Y521]
data-value: 0.655

Go through the items and report each one's phosphorylation enrichment.
1. MPAVTYTLAMR [MEGF10_Y895_P897L]
2. DQNVEYKGTVS [FHL1_Y117_W122S]
3. VLALWYFFLTH [ZDHHC23_Y127_YF]
4. NFDRVYIFHLR [MYOF_Y1137_YF]
5. SHLLRYLSWTV [CLCNKB_Y93]
6. AWVARYIFKRL [LPCAT3_Y348]
7. QNTGGYYDLYG [PTPN11_Y62_D61G]

Result:
[0.845, 0.618, 2.27, 1.18, 1.06, 1, 6.15]

Go through the items and report each one's phosphorylation enrichment.
1. GYSRHCEDGYP [CTNND1_Y217_Y217C]
2. QNRELYSEGLG [CNKSR1_Y665]
3. CFTGKYTLPPG [HSPB1_Y142_R140G]
4. EAIMTYVSSFY [ACTN4_Y260_K255E]

Result:
1: 0.879; 2: 0.497; 3: 0.908; 4: 1.06

Go through the items and report each one's phosphorylation enrichment.
1. VCDSNYSASRW [LRP5_Y1552_D1551N]
2. DMLFQYLKQIE [RPAP3_Y569_YF]
3. ETDTRYFDEEF [AKT1_Y437]
4. PVKTPYSLKRW [BMPR2_Y979_R974P]

Result:
0.618
0.976
1.37
1.36

Go through the items and report each one's phosphorylation enrichment.
1. KTVQDYLKKFY [MMP8_Y36_E38K]
2. HFMKLYEEKTG [PARP1_Y618]
3. RNEAFYDTFST [EFCAB3_Y372_S370A]
4. NYADPYRQLPY [CTNND2_Y503_Q507P]
5. FGLTLYPNSRE [MEP1A_Y472_V469L]
6. ETKAFYPEEIS [HSPA1A_Y115]

Result:
0.517
0.592
1.46
0.669
0.68
1.16

Go through the items and report each one's phosphorylation enrichment.
1. LISVSYDDWDF [GRIN2A_Y281_YF]
2. PGQRVYVVAER [SHH_Y316]

Result:
1: 2.06; 2: 0.556

Go through the items and report each one's phosphorylation enrichment.
1. DRLASSLDKVR [KRT10_Y160_Y160S]
2. QQLVAYYSKHA [SRC_Y232]
3. STKELYEKYMI
4. DALDNYVIRGV [PCCA_Y473]
5. ATPKGYERDAS [OTC_Y223_P225R]

Result:
[0.473, 1.3, 0.69, 0.846, 0.551]

Go through the items and report each one's phosphorylation enrichment.
1. CTTIHQNFMCN [TP53_Y234_Y234Q_YF]
2. FAKTQYPDIYA [CRX_Y63_V66I]

Result:
0.575
0.563
